measurement target: Melanocortin receptor 5 (Homo sapiens, UniProt P33032)
Sequence (P33032 whole entry): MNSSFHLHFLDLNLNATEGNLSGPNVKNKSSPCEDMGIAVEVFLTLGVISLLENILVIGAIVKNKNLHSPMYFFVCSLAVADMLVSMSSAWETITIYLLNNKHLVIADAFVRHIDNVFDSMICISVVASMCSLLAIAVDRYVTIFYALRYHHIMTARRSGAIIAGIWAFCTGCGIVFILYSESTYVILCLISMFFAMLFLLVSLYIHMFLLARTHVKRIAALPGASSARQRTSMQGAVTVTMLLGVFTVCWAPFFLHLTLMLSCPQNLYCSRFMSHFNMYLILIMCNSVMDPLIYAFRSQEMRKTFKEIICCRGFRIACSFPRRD
protocol details: Displacement of [125I]-NDP-alpha-MSH from human MC5R expressed in HEK293 cells after 40 mins by Wallac 1470 gamma counting
Assay type: cell-based
Positions of bridges follow the written chain, without caps; N, C: chain ends. Non-standard residues stand in square brackets, D forms with d. Residues, ends and D or L forms follow the SMILES beside them.

compound: C[C@@H]1NC(=O)[C@@H](CC(N)=O)NC(=O)[C@H](Cc2ccccc2)NC(=O)[C@H](Cc2c[nH]c3ccccc23)NC(=O)[C@H](CCCNC(=N)N)NC(=O)CC[C@@H](C(N)=O)NC(=O)[C@H](Cc2ccccc2)NC1=O (RWF[dN]AFE-NH2; lactam N-7)
measurement target: Melanocortin receptor 5 (Homo sapiens, UniProt P33032)
IC50: Not Active

compound: C[C@@H]1NC(=O)[C@H](CC(N)=O)NC(=O)[C@H](Cc2ccccc2)NC(=O)[C@H](Cc2c[nH]c3ccccc23)NC(=O)[C@H](CCCNC(=N)N)NC(=O)CC[C@@H](C(N)=O)NC(=O)[C@H](Cc2ccccc2)NC1=O (RWFNAFE-NH2; lactam N-7)
measurement target: Melanocortin receptor 5 (Homo sapiens, UniProt P33032)
IC50: Not Active

----------
measurement target: Melanocortin receptor 3 (Homo sapiens)
protocol details: Agonist activity at human MC3R expressed in HEK293 cells assessed as intracellular cAMP accumulation
Assay type: functional, cell-based
Positions of bridges follow the written chain, without caps; N, C: chain ends. Non-standard residues stand in square brackets, D forms with d. Residues, ends and D or L forms follow the SMILES beside them. 2Nal = N[C@@H](Cc1ccc2ccccc2c1)C(=O)O
observable: EC50

Below: 4 compounds and their reported EC50.
compound: C[C@@H]1NC(=O)[C@@H](Cc2cnc[nH]2)NC(=O)[C@H](Cc2ccccc2)NC(=O)[C@H](Cc2c[nH]c3ccccc23)NC(=O)[C@H](CCCNC(=N)N)NC(=O)CC[C@@H](C(N)=O)NC(=O)[C@H](Cc2ccccc2)NC1=O (RWF[dH]AFE-NH2; lactam N-7)
EC50: Not Active
//
compound: CC(=O)N[C@H]1CC(=O)NCCCC[C@@H](C(N)=O)NC(=O)[C@@H](CC(N)=O)NC(=O)[C@H](Cc2ccc3ccccc3c2)NC(=O)[C@H](Cc2c[nH]c3ccccc23)NC(=O)[C@H](CCCNC(=N)N)NC1=O (Ac-DRW[2Nal][dN]K-NH2; lactam 1-6)
EC50: Not Active
//
compound: C[C@@H]1NC(=O)[C@H](Cc2cnc[nH]2)NC(=O)[C@@H](Cc2ccccc2)NC(=O)[C@H](Cc2c[nH]c3ccccc23)NC(=O)[C@H](CCCNC(=N)N)NC(=O)CC[C@@H](C(N)=O)NC(=O)[C@H](Cc2ccccc2)NC1=O (RW[dF]HAFE-NH2; lactam N-7)
EC50: Not Active
//
compound: C[C@@H]1NC(=O)[C@@H](CCCNC(=N)N)NC(=O)[C@H](Cc2ccccc2)NC(=O)[C@H](Cc2c[nH]c3ccccc23)NC(=O)[C@H](CCCNC(=N)N)NC(=O)CC[C@@H](C(N)=O)NC(=O)[C@H](Cc2ccccc2)NC1=O
EC50: Not Active

# return EC50 for each item in the list
1. C[C@@H]1NC(=O)[C@@H](CC(N)=O)NC(=O)[C@H](Cc2ccccc2)NC(=O)[C@H](Cc2c[nH]c3ccccc23)NC(=O)[C@H](CCCNC(=N)N)NC(=O)CC[C@@H](C(N)=O)NC(=O)[C@H](Cc2ccccc2)NC1=O (RWF[dN]AFE-NH2; lactam N-7)
2. CC(=O)N[C@H]1CC(=O)NCCCC[C@@H](C(N)=O)NC(=O)[C@@H](CCC(N)=O)NC(=O)[C@H](Cc2ccc3ccccc3c2)NC(=O)[C@H](Cc2c[nH]c3ccccc23)NC(=O)[C@H](CCCNC(=N)N)NC1=O (Ac-DRW[2Nal][dQ]K-NH2; lactam 1-6)
3. CC(=O)N[C@H]1CC(=O)NCCCC[C@@H](C(N)=O)NC(=O)[C@@H](CCCNC(=N)N)NC(=O)[C@H](Cc2ccccc2)NC(=O)[C@H](Cc2c[nH]c3ccccc23)NC(=O)[C@H](CCCNC(=N)N)NC1=O (Ac-DRWF[dR]K-NH2; lactam 1-6)
4. C[C@@H]1NC(=O)[C@H](CC(N)=O)NC(=O)[C@@H](Cc2ccccc2)NC(=O)[C@H](Cc2c[nH]c3ccccc23)NC(=O)[C@H](CCCNC(=N)N)NC(=O)CC[C@@H](C(N)=O)NC(=O)[C@H](Cc2ccccc2)NC1=O (RW[dF]NAFE-NH2; lactam N-7)

Result:
1: Not Active; 2: Not Active; 3: Not Active; 4: Not Active

----------
measurement target: Melanocyte-stimulating hormone receptor (Homo sapiens)
Sequence (Q01726 whole entry): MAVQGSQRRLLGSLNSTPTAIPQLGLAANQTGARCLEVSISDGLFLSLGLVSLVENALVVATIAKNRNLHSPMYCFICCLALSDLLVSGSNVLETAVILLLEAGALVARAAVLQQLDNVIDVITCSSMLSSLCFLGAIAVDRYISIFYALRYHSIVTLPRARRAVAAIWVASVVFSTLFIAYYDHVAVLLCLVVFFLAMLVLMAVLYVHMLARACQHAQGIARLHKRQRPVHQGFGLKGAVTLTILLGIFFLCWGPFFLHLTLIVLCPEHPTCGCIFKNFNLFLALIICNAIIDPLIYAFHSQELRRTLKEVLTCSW
protocol details: Displacement of [125I]-NDP-alpha-MSH from human MC1R expressed in HEK293 cells after 40 mins by Wallac 1470 gamma counting
Type: cell-based
Positions of bridges follow the written chain, without caps; N, C: chain ends. Non-standard residues stand in square brackets, D forms with d. Residues, ends and D or L forms follow the SMILES beside them. 2Nal = N[C@@H](Cc1ccc2ccccc2c1)C(=O)O

molecule: CC(=O)N[C@H]1CC(=O)NCCCC[C@@H](C(N)=O)NC(=O)[C@@H](CC(N)=O)NC(=O)[C@H](Cc2ccccc2)NC(=O)[C@H](Cc2c[nH]c3ccccc23)NC(=O)[C@H](CCCNC(=N)N)NC1=O (Ac-DRWF[dN]K-NH2; lactam 1-6)
IC50: Not Active
//
molecule: C[C@@H]1NC(=O)[C@@H](CCC(N)=O)NC(=O)[C@H](Cc2ccc3ccccc3c2)NC(=O)[C@H](Cc2c[nH]c3ccccc23)NC(=O)[C@H](CCCNC(=N)N)NC(=O)CC[C@@H](C(N)=O)NC(=O)[C@H](Cc2ccccc2)NC1=O (RW[2Nal][dQ]AFE-NH2; lactam N-7)
IC50: Not Active

----------
measurement target: Melanocortin receptor 4 (Homo sapiens, UniProt P32245)
Sequence (P32245 whole entry): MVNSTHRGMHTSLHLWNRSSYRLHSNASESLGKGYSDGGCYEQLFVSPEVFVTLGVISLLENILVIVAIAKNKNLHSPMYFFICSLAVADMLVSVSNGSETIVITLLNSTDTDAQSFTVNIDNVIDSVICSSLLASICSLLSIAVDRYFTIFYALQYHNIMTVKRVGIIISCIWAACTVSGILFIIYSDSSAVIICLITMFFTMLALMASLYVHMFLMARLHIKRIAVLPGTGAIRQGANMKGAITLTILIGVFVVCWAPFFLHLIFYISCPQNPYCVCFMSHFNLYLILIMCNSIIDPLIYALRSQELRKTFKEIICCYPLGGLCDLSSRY
protocol details: Agonist activity at human MC4R expressed in HEK293 cells assessed as intracellular cAMP accumulation
Type: functional, cell-based
Positions of bridges follow the written chain, without caps; N, C: chain ends. Non-standard residues stand in square brackets, D forms with d. Residues, ends and D or L forms follow the SMILES beside them. 2Nal = N[C@@H](Cc1ccc2ccccc2c1)C(=O)O
observable: EC50

compound: C[C@@H]1NC(=O)[C@@H](CCC(N)=O)NC(=O)[C@H](Cc2ccccc2)NC(=O)[C@H](Cc2c[nH]c3ccccc23)NC(=O)[C@H](CCCNC(=N)N)NC(=O)CC[C@@H](C(N)=O)NC(=O)[C@H](Cc2ccccc2)NC1=O (RWF[dQ]AFE-NH2; lactam N-7)
observed measurement: Not Active
--
compound: C[C@@H]1NC(=O)[C@@H](CC(N)=O)NC(=O)[C@H](Cc2ccc3ccccc3c2)NC(=O)[C@H](Cc2c[nH]c3ccccc23)NC(=O)[C@H](CCCNC(=N)N)NC(=O)CC[C@@H](C(N)=O)NC(=O)[C@H](Cc2ccccc2)NC1=O (RW[2Nal][dN]AFE-NH2; lactam N-7)
observed measurement: Not Active

----------
I'd be grateful if you could share measured Activity for these entries.
measurement target: Melanocortin receptor 3 (Homo sapiens, UniProt P41968)
Sequence (P41968 whole entry): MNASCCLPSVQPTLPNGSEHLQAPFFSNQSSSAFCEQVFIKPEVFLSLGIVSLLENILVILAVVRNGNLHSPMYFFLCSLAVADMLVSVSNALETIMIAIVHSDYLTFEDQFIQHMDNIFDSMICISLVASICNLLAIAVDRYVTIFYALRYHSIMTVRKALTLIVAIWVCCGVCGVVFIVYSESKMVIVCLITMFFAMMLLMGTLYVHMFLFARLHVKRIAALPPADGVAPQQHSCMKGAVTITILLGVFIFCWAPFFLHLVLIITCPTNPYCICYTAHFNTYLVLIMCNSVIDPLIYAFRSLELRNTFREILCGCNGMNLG
protocol details: Displacement of [125I]-NDP-alpha-MSH from human MC3R expressed in HEK293 cells at 10 uM after 40 mins by Wallac 1470 gamma counting relative to Ac-Nle-c[Asp-His-D-Phe-Arg-Trp-Lys]-NH2
Type: cell-based
Positions of bridges follow the written chain, without caps; N, C: chain ends. Non-standard residues stand in square brackets, D forms with d. Residues, ends and D or L forms follow the SMILES beside them. 2Nal = N[C@@H](Cc1ccc2ccccc2c1)C(=O)O
One number for each entry, in %.

compound: C[C@@H]1NC(=O)[C@@H](CCCNC(=N)N)NC(=O)[C@H](Cc2ccccc2)NC(=O)[C@H](Cc2c[nH]c3ccccc23)NC(=O)[C@H](CCCNC(=N)N)NC(=O)CC[C@@H](C(N)=O)NC(=O)[C@H](Cc2ccccc2)NC1=O
Activity (%): 30
//
compound: CC(=O)N[C@H]1CC(=O)NCCCC[C@@H](C(N)=O)NC(=O)[C@@H](CC(N)=O)NC(=O)[C@H](Cc2ccccc2)NC(=O)[C@H](Cc2c[nH]c3ccccc23)NC(=O)[C@H](CCCNC(=N)N)NC1=O (Ac-DRWF[dN]K-NH2; lactam 1-6)
Activity (%): 0

Consider now this further compound.
Query: Report Activity for CC(=O)N[C@H]1CC(=O)NCCCC[C@@H](C(N)=O)NC(=O)[C@@H](CCC(N)=O)NC(=O)[C@H](Cc2ccc3ccccc3c2)NC(=O)[C@H](Cc2c[nH]c3ccccc23)NC(=O)[C@H](CCCNC(=N)N)NC1=O (Ac-DRW[2Nal][dQ]K-NH2; lactam 1-6) please.
Result: 0

These entries and their values trace back to ChEMBL document CHEMBL1773033.
